- ASSAY OVERVIEW: inhibitors of DENV2 cytopathic effect, primary screen, cell-based, plate reader, single concentration (AID 651640)
- TEST CONTEXT: DENV2-infected cells, cytopathic effect rescue, at 9.99 µM
Screen size: about 350,000 compounds; about 6,000 (1.7%) were called active. Another 5% or so got no clear call; they are omitted. No stated cut-off is given here; in the data, active means CPE inhibition above about 20% (passing the limit was not always enough); inconclusive means no clear call, values can overlap the other calls; tested in BHK-21 cells. This is one part of a sample in which actives are shown more often than they occur.
Labels: YES = active, NO = inactive

# SMILES DATA, CATEGORY LABEL
rows = [
    ("CCC(=O)Nc1ccc2c(c1)OC[C@@H](C)N(Cc1cncnc1)C[C@H](C)[C@@H](OC)CN(C)C2=O", "NO"),
    ("Fc1ccc(-c2csc(-c3ccc(C4SCCS4)cc3)n2)cc1F", "YES"),
    ("CO[C@@H]1CN(C)C(=O)c2cc(NC(=O)C3CC3)ccc2OC[C@H](C)N(C(=O)c2ccccc2F)C[C@H]1C", "NO"),
    ("O=C(C[C@H]1C[C@H](C(=O)N2CCOCC2)[C@@]2(CCC3CCCC3)c3[nH]c4ccc(Cl)cc4c3CCN2C1=O)NCc1ccco1", "YES"),
    ("CCCCN(C)CCCNC(=O)c1cc(-c2cccs2)nc2ccccc12", "YES"),
]

====

- ASSAY OVERVIEW: inhibitors of DENV2 cytopathic effect, primary screen, cell-based, plate reader, single concentration (AID 651640)
- TEST CONTEXT: DENV2-infected cells, cytopathic effect rescue, at 9.99 µM
Among all 350,000 compounds or so, about 6,000 (1.7%) were called active. About 5% were inconclusive and are not listed. Cut-off read from the data, not from the text of the source: active = CPE inhibition above about 20% (passing the limit was not always enough); inconclusive = no clear call, values can overlap the other calls; tested in BHK-21 cells. The full list was thinned out, with actives kept by preference.
Labels: yes = active, no = inactive

# COMPOUND, CATEGORY LABEL
records = [
    ("O=C([C@H]1[C@H](CO)[C@H]2Cn3c(ccc(C4=CCCC4)c3=O)[C@@H]1N2C(=O)c1ccncc1)N1CCCCC1", "no"),
    ("COc1ccc2sc(-c3ccccc3OC)c(-c3ccc(OCCN4CCCC4)cc3)c2c1", "no"),
    ("CO[C@@H]1CN(C)C(=O)c2ccc(NS(=O)(=O)c3c(C)noc3C)cc2OC[C@H](C)NC[C@@H]1C", "no"),
    ("C[C@@H]1CN([C@H](C)CO)C(=O)c2cccc(NS(=O)(=O)c3ccc(F)cc3)c2O[C@@H]1CN(C)C(=O)Nc1ccc(F)cc1", "no"),
    ("CCOC(=O)[C@H]1[C@H]2COc3ccc(Cl)cc3[C@@H]2N2C(=O)c3cc(C)ccc3NC(=O)[C@@]12C", "no"),
    ("O=C(Cc1ccccc1)N1C[C@@H]2[C@H](c3ccccc31)[C@@H](CO)N2C(=O)C1CC1", "no"),
    ("COc1ccc(S(=O)(=O)N(C)C[C@H]2Oc3c(NC(=O)CCCCCC(=O)Nc4ccccc4N)cccc3C(=O)N([C@H](C)CO)C[C@H]2C)cc1", "no"),
    ("CO[C@H]1CN(C)C(=O)c2ccc(NC(=O)C3CC3)cc2OC[C@H](C)N(Cc2ccncc2)C[C@@H]1C", "no"),
    ("CCOC(=O)N1CCN(Cc2nc3cc(NC(=O)CC)ccc3n2CC)CC1", "yes"),
    ("O=C(C[C@@H]1C=C[C@@H](NC(=O)c2ccccc2)[C@H](CO)O1)NCCc1ccncc1", "no"),
    ("COc1ccccc1-c1sc2ccccc2c1-c1ccc(Br)nc1", "yes"),
    ("Cc1ccc(S(=O)(=O)Nc2ccc3c(c2)C(=O)N(C)[C@H]2CC[C@H](CC(=O)O)O[C@H]2CO3)cc1", "no"),
    ("C[C@@H]1CCCCO[C@H](CN(C)Cc2ccc(Cl)c(Cl)c2)[C@H](C)CN([C@@H](C)CO)C(=O)c2cc(NC(=O)CCC(F)(F)F)ccc2O1", "no"),
    ("Cc1cccc([C@@H]2[C@@H]3C(=O)N(C)C(=O)[C@@H]3[C@@H]3C(=O)Nc4ccccc4C(=O)N23)c1", "yes"),
    ("Cc1ccc(S(=O)(=O)N[C@H]2CC[C@@H](CC(=O)NCc3ccc(Cl)c(Cl)c3)O[C@H]2CO)cc1", "no"),
    ("C=C1C(=O)[C@]23C[C@H]1CCC2[C@@]1(C)C(C[C@@H]3O)[C@](C)(C(=O)O)CC[C@@H]1O (stereo partly specified)", "yes"),
    ("C[C@]1(C(=O)NCCc2c[nH]c3ccccc23)C=C[C@@H](Cc2ccccc2)N1C(=O)c1ccccc1", "yes"),
    ("C[C@H](CO)N1C[C@H](C)[C@@H](CN(C)S(=O)(=O)c2cccs2)Oc2ccc(NC(=O)Nc3ccc(C(F)(F)F)cc3)cc2CC1=O", "no"),
    ("COc1ccc2c3c([nH]c2c1)[C@H](CO)N(Cc1cccc(F)c1)CC31CCN(CC2CC2)CC1", "no"),
    ("O=C(Nc1ncccc1O)c1ccc(S(=O)(=O)N2CCCC2)cc1", "no"),
    ("Cc1cccc([C@H]2[C@@H]3C=CC[C@@H](C)[C@@H]3C(=O)N2Cc2ccccc2)c1", "no"),
]
